Data origin: ChEMBL document CHEMBL1145498

Recorded below: ΔTm, system Serine/threonine-protein kinase 38 (Homo sapiens) (UniProt Q15208).

Provide ΔTm, recorded with Serine/threonine-protein kinase 38 (Homo sapiens) (UniProt Q15208), of CN(C)C[C@@H]1CCn2cc(c3ccccc32)C2=C(C(=O)NC2=O)c2cn(c3ccccc23)CCO1 [RUBOXISTAURIN] 0 °C

Provide ΔTm, recorded with Serine/threonine-protein kinase 38 (Homo sapiens) (UniProt Q15208), of O=c1c2ccccc2[nH]c(=S)n1CCN1CCC(=C(c2ccc(F)cc2)c2ccc(F)cc2)CC1 [DIACYLGLYCEROL KINASE INHIBITOR II] 0.2 °C

Provide ΔTm, recorded with Serine/threonine-protein kinase 38 (Homo sapiens) (UniProt Q15208), of O=C1c2ccccc2-[n+]2ccc3c([nH]c4ccccc43)c21 [FASCAPLYSIN CHLORIDE] -0.5 °C
